system: rodent lifetime carcinogenesis bioassay, tumor incidence TD50; experiment: carcinogenic potency in animals, long-term in vivo studies, CPDB compilation (AID 1745844); conditions: rat; strain F344/DuCrj; males; in drinking water; site: nasal cavity; lesion: squamous-cell carcinoma; dosed 104 weeks; study length 105 weeks
Measured attribute: TD50

response.value for C1COCCO1 (field: TD50) = 3490 mg/kg/day

====

tested on: rodent lifetime carcinogenesis bioassay, tumor incidence TD50; assay: carcinogenic potency in animals, long-term in vivo studies, CPDB compilation (AID 1745844); details: mouse; strain B6C3F1; females; inhaled; site: Harderian gland; lesion: adenoma; dosed 104 weeks; study length 104 weeks
Measured attribute: TD50

response.value for C=CC(=C)Cl (field: TD50) = 61.3 mg/kg/day

====

test system: rodent lifetime carcinogenesis bioassay, tumor incidence TD50; assay: carcinogenic potency in animals, long-term in vivo studies, CPDB compilation (AID 1745844); conditions: rat; strain Fischer 344; males; by gavage; site: multiple organs; lesion: mononuclear-cell leukemia; dosed 103 weeks; study length 104 weeks
Measured attribute: TD50

S=c1[nH]c2ccccc2s1 ... 401 mg/kg/day
c1ccoc1 ... 4.64 mg/kg/day

# TD50 measured on rodent lifetime carcinogenesis bioassay, tumor incidence TD50 for item CC(I)C1OCC(CO)O1 (stereo not drawn) = 101 mg/kg/day

====

system: rodent lifetime carcinogenesis bioassay, tumor incidence TD50; test: carcinogenic potency in animals, long-term in vivo studies, CPDB compilation (AID 1745844); details: rat; strain Wistar; males; in drinking water; site: liver; lesion: hepatocellular carcinoma; dosed 104 weeks; study length 104 weeks
Measured attribute: TD50 (mg/kg/day)
Answers are plain numbers, in mg/kg/day.

# TD50 measured on rodent lifetime carcinogenesis bioassay, tumor incidence TD50 for item O=C1OC(O)C(C(Cl)Cl)=C1Cl (stereo unspecified) = 53.4

====

For each entry below, report its TD50 value.
tested on: rodent lifetime carcinogenesis bioassay, tumor incidence TD50; experiment: carcinogenic potency in animals, long-term in vivo studies, CPDB compilation (AID 1745844); conditions: rat; strain Fischer 344; males; in feed; site: liver; lesion: hepatocellular carcinoma + neoplastic nodule; dosed 103 weeks; study length 104 weeks
The source made the active and inactive calls. No rule for the calls is given here.

Cc1cc(N=Nc2c(O)ccc3ccccc23)c(S(=O)(=O)O)cc1Cl ... 357 mg/kg/day
CC(=O)Nc1ccc(N=Nc2cc(C)ccc2O)cc1 ... 833 mg/kg/day
Cc1c(N)cccc1N ... 117 mg/kg/day (inactive)

I would be grateful if you could provide TD50 for each of the following entries.
1. N=C1C=CC(=C(c2ccc(N)cc2)c2ccc(N)cc2)C=C1
2. O=P(OCC(Br)CBr)(OCC(Br)CBr)OCC(Br)CBr (stereo not drawn)
3. Brc1c(Br)c(Br)c(Oc2c(Br)c(Br)c(Br)c(Br)c2Br)c(Br)c1Br
4. CNc1ccc(N(CCO)CCO)cc1[N+](=O)[O-]
5. Oc1ccc2ccccc2c1N=Nc1ccccc1

1. 41.5 mg/kg/day
2. 34.3 mg/kg/day
3. 2220 mg/kg/day
4. 938 mg/kg/day
5. 17.9 mg/kg/day

====

tested on: rodent lifetime carcinogenesis bioassay, tumor incidence TD50; experiment: carcinogenic potency in animals, long-term in vivo studies, CPDB compilation (AID 1745844); details: mouse; strain Swiss albino; females; in drinking water; site: liver; lesion: liver-cell carcinoma; dosed 65 weeks; study length 73 weeks
Measured attribute: TD50

response.value for CN(N)C=O (field: TD50) = 19.9 mg/kg/day

====

tested on: rodent lifetime carcinogenesis bioassay, tumor incidence TD50; assay: carcinogenic potency in animals, long-term in vivo studies, CPDB compilation (AID 1745844); details: mouse; strain B6C3F1; males; inhaled; site: heart; lesion: hemangiosarcoma; dosed 80 weeks; study length 96 weeks
Measured attribute: TD50

# TD50 measured on rodent lifetime carcinogenesis bioassay, tumor incidence TD50 for item C=CC(=C)C = 25800 mg/kg/day

====

tested on: rodent lifetime carcinogenesis bioassay, tumor incidence TD50; experiment: carcinogenic potency in animals, long-term in vivo studies, CPDB compilation (AID 1745844); conditions: rat; strain F344/DuCrj; males; in feed; site: Zymbal's gland; lesion: squamous-cell carcinoma; dosed 104 weeks; study length 104 weeks
Measured attribute: TD50

response.value for Nc1ccc2nc3ccccn3c2n1 (field: TD50) = 569 mg/kg/day

====

tested on: rodent lifetime carcinogenesis bioassay, tumor incidence TD50; assay: carcinogenic potency in animals, long-term in vivo studies, CPDB compilation (AID 1745844); settings: rat; strain Wistar-random; females; inhaled; site: nasal mucosa; lesion: squamous-cell carcinoma; dosed 50 weeks; study length 105 weeks
Measured attribute: TD50

response.value for CC=O (field: TD50) = 574 mg/kg/day

====

system: rodent lifetime carcinogenesis bioassay, tumor incidence TD50; assay: carcinogenic potency in animals, long-term in vivo studies, CPDB compilation (AID 1745844); details: rat; strain Wistar; females; in feed; site: liver; lesion: several types; types named in the paper; dosed 52 weeks; study length 52 weeks
Measured attribute: TD50 (mg/kg/day)
Answers are plain numbers, in mg/kg/day.

response.value for O=P(O)(OCC(Br)CBr)OCC(Br)CBr (stereo unspecified) (field: TD50) = 11.8

====

system: rodent lifetime carcinogenesis bioassay, tumor incidence TD50; experiment: carcinogenic potency in animals, long-term in vivo studies, CPDB compilation (AID 1745844); conditions: rat; strain Wistar; males; in feed; site: liver; lesion: hepatocellular carcinoma; dosed 96 weeks; study length 96 weeks
Measured attribute: TD50

response.value for CN(C)N=O (field: TD50) = 5.52 mg/kg/day

====

system: rodent lifetime carcinogenesis bioassay, tumor incidence TD50; test: carcinogenic potency in animals, long-term in vivo studies, CPDB compilation (AID 1745844); details: rat; strain F344/DuCrj; males; in drinking water; site: urinary bladder/ureter; lesion: transitional-cell carcinoma; dosed 40 weeks; study length 78 weeks
Measured attribute: TD50

response.value for CN(CCCC(=O)O)N=O (field: TD50) = 4.23 mg/kg/day

====

test system: rodent lifetime carcinogenesis bioassay, tumor incidence TD50; experiment: carcinogenic potency in animals, long-term in vivo studies, CPDB compilation (AID 1745844); details: rat; strain Fischer 344; males; by gavage; site: colon; lesion: malignant tumor; dosed 30 weeks; study length 65 weeks
Measured attribute: TD50 (mg/kg/day)
One number for each entry, in mg/kg/day.

response.value for CN=[N+](C)[O-] (field: TD50) = 0.171

====

test system: rodent lifetime carcinogenesis bioassay, tumor incidence TD50; experiment: carcinogenic potency in animals, long-term in vivo studies, CPDB compilation (AID 1745844); settings: rat; strain Fischer 344; males; in feed; site: adrenal medulla + kidney; lesion: pheochromocytoma benign, bilateral + pheochromocytoma, benign + tubule adenoma + tubule carcinoma; dosed 104 weeks; study length 104 weeks
Measured attribute: TD50

response.value for O=C1OC(c2ccc(O)cc2)(c2ccc(O)cc2)c2ccccc21 (field: TD50) = 250 mg/kg/day

====

system: rodent lifetime carcinogenesis bioassay, tumor incidence TD50; test: carcinogenic potency in animals, long-term in vivo studies, CPDB compilation (AID 1745844); details: mouse; strain Swiss albino; males; in drinking water; site: liver; lesion: several types; types named in the paper; dosed 100 weeks; study length 100 weeks
Measured attribute: TD50 (mg/kg/day)
One number for each entry, in mg/kg/day.

# TD50 measured on rodent lifetime carcinogenesis bioassay, tumor incidence TD50 for item NNCc1ccccc1 = 86.2

====

tested on: rodent lifetime carcinogenesis bioassay, tumor incidence TD50; test: carcinogenic potency in animals, long-term in vivo studies, CPDB compilation (AID 1745844); settings: hamster; strain Syrian Golden; males; by gavage; site: any site (literature study); lesion: several types; types named in the paper; dosed 66 weeks; study length 87 weeks
Measured attribute: TD50 (mg/kg/day)
Answers are plain numbers, in mg/kg/day.

response.value for CC1CN(N=O)CC(C)O1 (stereo unspecified) (field: TD50) = 1.68

====

test system: rodent lifetime carcinogenesis bioassay, tumor incidence TD50; assay: carcinogenic potency in animals, long-term in vivo studies, CPDB compilation (AID 1745844); conditions: rat; strain MRC; females; by gavage; site: nasal and paranasal cavity; lesion: several types; types named in the paper; dosed 67 weeks; study length 76 weeks
Measured attribute: TD50

response.value for CC(=O)CN(C)N=O (field: TD50) = 0.0167 mg/kg/day

====

test system: rodent lifetime carcinogenesis bioassay, tumor incidence TD50; assay: carcinogenic potency in animals, long-term in vivo studies, CPDB compilation (AID 1745844); details: mouse; strain Swiss; females; in feed; site: any site (literature study); lesion: several types; types named in the paper; dosed 78 weeks; study length 78 weeks
Active and inactive are the calls of the source. How the calls were made is not given here.
Measured attribute: TD50

response.value for COc1ccc(CCN2CCC(Nc3nc4ccccc4n3Cc3ccc(F)cc3)CC2)cc1 (field: TD50) = 164 mg/kg/day (inactive)

====

tested on: rodent lifetime carcinogenesis bioassay, tumor incidence TD50; assay: carcinogenic potency in animals, long-term in vivo studies, CPDB compilation (AID 1745844); conditions: mouse; strain Swiss albino; males; in drinking water; site: preputial gland; lesion: several types; types named in the paper; dosed 51 weeks; study length 61 weeks
Measured attribute: TD50

# TD50 measured on rodent lifetime carcinogenesis bioassay, tumor incidence TD50 for item CCCN(N)C=O = 60.4 mg/kg/day
